- Measured on: Dimer of Gag-Pol polyprotein [489-587] (Human immunodeficiency virus 1, UniProt P12497)
- Construct: 489-587
- Experiment description: Protease Inhibition Assay
- Condition notes: pH 5.5; 30 °C
Entries whose IC50 is below 2 nM take Criterion met; entries at or above 2 nM take Criterion not met.

compound="CC(C)(C)OC(=O)N[C@@H](Cc1ccccc1)[C@@H](O)C[C@]1(Cc2ccccc2)N=CC(C2C[C@H](CC(N)=O)c3ccccc32)C1=O (stereo partly drawn)" label="Criterion not met"
compound="O=C(N[C@@H](Cc1ccccc1)[C@@H](O)C[C@]1(Cc2ccccc2)N=CC(C2CNC(=O)c3ccccc32)C1=O)O[C@H]1CCOC1 (stereo partly drawn)" label="Criterion not met"
compound="CC(C)(C)CC(=O)N[C@@H](Cc1ccccc1)[C@@H](O)C[C@]1(Cc2ccccc2)N=CC(C2C[C@H](CC(N)=O)c3ccccc32)C1=O (stereo partly drawn)" label="Criterion not met"
compound="CC(C)(C)OC(=O)N[C@@H](Cc1ccccc1)[C@@H](O)C[C@]1(Cc2ccccc2)N=CC(C2c3ccccc3[C@H]3NC(=O)O[C@@H]23)C1=O (stereo partly drawn)" label="Criterion not met"
compound="CC(C)(C)CC(=O)N[C@@H](Cc1ccccc1)[C@@H](O)C[C@]1(Cc2ccccc2)N=CC(C2c3ccccc3[C@H]3NC(=O)O[C@@H]23)C1=O (stereo partly drawn)" label="Criterion not met"
compound="O=C(N[C@@H](Cc1ccccc1)[C@@H](O)C[C@]1(Cc2ccccc2)N=CC(C2c3ccccc3[C@H]3NC(=O)O[C@@H]23)C1=O)O[C@H]1CCOC1 (stereo partly drawn)" label="Criterion met"
